Could you please report measured koff for the items listed next?
Target: T1, Histidine-tagged mfCD40 protein (mfCD40-His), Macaca fascicularis (Macaca fascicularis, UniProt G7PG38 21-193)
T1 construct: not shown: histidine tag
Assay: SPR, Biacore T200; antibody on Protein A chip, mfCD40-His injected; 1:1 fit
Protocol: The binding affinity of the anti-hCD40 antibodies with mfCD40 (Macaca fascicularis) were measured using surface plasmon resonance (SPR) using Biacore (Biacore, INC, Piscataway N.J.) T200 biosensor equipped with pre-immobilized Protein A sensor chips. Anti-hCD40 antibodies were purified. […] Dissociation was monitored for 300-600 seconds. […]

What value of measured koff is listed for 6A7-H3K3-IgG4 (antibody, V domains shown, Humanized) VH: QVQLVQSGAEVKKPGASVKVSCKASGYTFISYYIYWVRQAPGQGLEWIGGINPRNGGTNFNEKFKSRATLTVDTSISTAYMELSRLRSEDTAVYYCTRHGNGVYWGQGTTVTVSS VL: DVVMTQSPLSLPVTLGDPASISCRSSQSLLHSNGNTYLHWYQQRPGQSPNHLIYQVSNRFSGVPDRFSGSGSGTDFTLKISRVEAEDVGVYFCSQTTHVPWTFGGGTKLEIK ?
0.000201 s⁻¹

What value of measured koff is listed for 6A7-H4K2-IgG4 (antibody, V domains shown, Humanized) VH: QVQLVQSGAEVKKPGASVKLSCKASGYTFISYYIYWVKQAPGQGLEWIGGINPRNGGTNFNEKFKSRATLTVDTSISTAYMELSRLRSEDTAVYYCTRHGNGVYWGQGTTLTVSS VL: DVVMTQSPLSLPVTLGQPASISCRSSQSLLHSNGNTYLHWYQQRPGQSPNHLIYQVSNRFSGVPDRFSGSGSGTDFTLKISRVEAEDVGVYFCSQTTHVPWTFGGGTKVEIK ?
0.000787 s⁻¹

What value of measured koff is listed for 4H6-H4K2-IgG4 (antibody, V domains shown, Humanized) VH: EVQLQESGPGLVKPSQTLSLTCTVSGDSVSSGYWNWIRKFPGKKLEYMGFISYSGSTYYTPSLKSRITISRDTSKNQFSLKLSSVTAADTAVYFCARFRRYDDGVDYWGQGTLVTVSS VL: DIQMTQSPSAMSASVGDRVTITCRASHEISGYLSWIQQKPGGTIKRLINAASTLASGVPSRFSGSRSGTEFTLTISSLQPEDFADYYCLQYSSYPWTFGGGTKLEIK ?
0.0169 s⁻¹

What value of measured koff is listed for 4H6-H3K2-IgG4 (antibody, V domains shown, Humanized) VH: EVQLQESGPGLVKPSQTLSLTCTVSGDSVSSGYWNWIRKHPGKKLEYMGFISYSGSTYYTPSLKSRITISRDTSKNQFSLKLSSVTAADTAVYFCARFRRYDDGVDYWGQGTLVTVSS VL: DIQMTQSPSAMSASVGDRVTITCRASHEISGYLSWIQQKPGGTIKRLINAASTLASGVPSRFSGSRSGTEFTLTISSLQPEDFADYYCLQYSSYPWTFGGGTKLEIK ?
0.0192 s⁻¹
